system: Human immunodeficiency virus 1; assay: Inhibitory activity against LAI strain of HIV-I in MT-4 cell was determined; format: functional, organism-based; conditions: Human immunodeficiency virus 1, MT4
pIC50: −log10 of the molar value.
Experimental Endpoint: pIC50

# Compound, Tested System, Observed Measurement
rows = [
    ("N#Cc1ccc(Nc2nc(N)nc(Oc3c(Cl)cc(Cl)cc3Cl)n2)cc1", "Human immunodeficiency virus 1", 8.62),
    ("Cc1cc(C)cc(Cc2nc(N)nc(Nc3ccc(C#N)cc3)n2)c1", "Human immunodeficiency virus 1", 7.04),
    ("CN(C)CCOc1nc(Cc2c(Cl)cccc2Cl)nc(Nc2ccc(C#N)cc2)n1", "Human immunodeficiency virus 1", 8.26),
    ("CNc1nc(Cc2c(Cl)cccc2Cl)nc(Nc2ccc(C#N)cc2)n1", "Human immunodeficiency virus 1", 8.15),
    ("Cc1cc(C)c(Oc2ncnc(Nc3ccc(C#N)cc3)n2)c(C)c1", "Human immunodeficiency virus 1", 9.22),
    ("Cc1cc([N+](=O)[O-])cc(C)c1Oc1nc(N)nc(Nc2ccc(C#N)cc2)n1", "Human immunodeficiency virus 1", 8.70),
    ("Cc1cc(N)cc(C)c1Oc1nc(N)nc(Nc2ccc(C#N)cc2)n1", "Human immunodeficiency virus 1", 5.11),
    ("N#Cc1ccc(Nc2nc(O)nc(Cc3c(Cl)cccc3Cl)n2)cc1", "Human immunodeficiency virus 1", 6.80),
    ("N#Cc1ccc(Nc2nc(Cc3c(Cl)cccc3Cl)nc(N=[N+]=[N-])n2)cc1", "Human immunodeficiency virus 1", 7.85),
    ("N#Cc1ccc(Nc2nc(N)nc(Cc3c(Cl)cccc3Cl)n2)cc1", "Human immunodeficiency virus 1", 8.20),
    ("CONc1nc(Cc2c(Cl)cccc2Cl)nc(Nc2ccc(C#N)cc2)n1", "Human immunodeficiency virus 1", 8.21),
    ("COc1cccc(OC)c1Oc1nc(N)nc(Nc2ccc(C#N)cc2)n1", "Human immunodeficiency virus 1", 7.51),
    ("N#Cc1ccc(Nc2nc(N)nc(Cc3ccccc3Cl)n2)cc1", "Human immunodeficiency virus 1", 6.89),
    ("Cc1cc(Br)c(Oc2ncnc(Nc3ccc(C#N)cc3)n2)c(Br)c1", "Human immunodeficiency virus 1", 8.89),
    ("CON(C)c1nc(Cc2c(Cl)cccc2Cl)nc(Nc2ccc(C#N)cc2)n1", "Human immunodeficiency virus 1", 7.07),
    ("N#Cc1ccc(Nc2nc(N)nc(Oc3c(Cl)cc(F)cc3Cl)n2)cc1", "Human immunodeficiency virus 1", 8.14),
    ("Cc1cccc(C)c1Cc1nc(N)nc(Nc2ccc(C#N)cc2)n1", "Human immunodeficiency virus 1", 8.92),
    ("N#Cc1ccc(Nc2nc(N)nc(Oc3c(F)cc(F)cc3F)n2)cc1", "Human immunodeficiency virus 1", 7.29),
    ("CSc1nc(Cc2c(Cl)cccc2Cl)nc(Nc2ccc(C#N)cc2)n1", "Human immunodeficiency virus 1", 7.74),
    ("N#Cc1ccc(Nc2nc(N)nc(Cc3c(Cl)ccc(Cl)c3Cl)n2)cc1", "Human immunodeficiency virus 1", 8.52),
    ("N#Cc1ccc(Nc2nc(N)nc(Cc3c(Cl)cc(Cl)cc3Cl)n2)cc1", "Human immunodeficiency virus 1", 8.85),
    ("C[S+]([O-])c1nc(Cc2c(Cl)cccc2Cl)nc(Nc2ccc(C#N)cc2)n1 (centres undefined)", "Human immunodeficiency virus 1", 5.81),
    ("CN(C)CCNc1nc(Cc2c(Cl)cccc2Cl)nc(Nc2ccc(C#N)cc2)n1", "Human immunodeficiency virus 1", 8.30),
    ("CN(C)c1nc(Cc2c(Cl)cccc2Cl)nc(Nc2ccc(C#N)cc2)n1", "Human immunodeficiency virus 1", 6.78),
]
